Biological target: Inward rectifier potassium channel 2 (Mus musculus) (UniProt P35561)
Sequence (P35561 whole entry, looked up): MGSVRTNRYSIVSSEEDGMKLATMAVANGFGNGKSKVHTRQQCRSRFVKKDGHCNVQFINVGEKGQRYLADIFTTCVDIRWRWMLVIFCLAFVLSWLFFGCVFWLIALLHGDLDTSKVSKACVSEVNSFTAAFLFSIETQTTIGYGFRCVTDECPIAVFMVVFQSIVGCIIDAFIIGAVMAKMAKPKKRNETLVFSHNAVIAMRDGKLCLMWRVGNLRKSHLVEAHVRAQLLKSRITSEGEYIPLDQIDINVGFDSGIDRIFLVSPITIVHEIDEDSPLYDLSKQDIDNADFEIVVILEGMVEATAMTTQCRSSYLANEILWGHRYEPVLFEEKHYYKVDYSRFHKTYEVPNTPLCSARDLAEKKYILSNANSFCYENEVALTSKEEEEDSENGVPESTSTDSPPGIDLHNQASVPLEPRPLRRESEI
Test: blocks the mouse Kir2.1 inward-rectifier potassium channel (AID 1672);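 note: channel flux triggered by added potassium and thallium sulfate stimulus; B-score of peak minus minimum fluorescence over baseline after thallium stimulus; more negative B-score means stronger Kir2.1 block with less thallium influx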
Settings: HEK293-Kir2.1, FluxOR thallium flux fluorescence; at 10 µM; hits give low values
The campaign covered roughly 310,000 compounds. About 2,600 (0.84%) were called active. Shown is part of a subset that was picked to be rich in actives.
B-score listing for selected compounds.
Write no unit; give the number alone.

// output B-score; input Cc1ccc(-c2nn(-c3ccccc3)cc2/C=C2\SC(=S)N(CCCCCC(=O)O)C2=O)o1 ; system Inward rectifier potassium channel 2 (Mus musculus) (UniProt P35561)
-6

Provide B-score, recorded with Inward rectifier potassium channel 2 (Mus musculus) (UniProt P35561), of CC(NCc1ccccc1OC1CCCC1)c1ccccc1 (configuration not stated)
-12.7

Enter measured B-score, system Inward rectifier potassium channel 2 (Mus musculus) (UniProt P35561), for the compound shown: COc1ccccc1CN1CCN(C(c2ccccc2)c2ccccc2)CC1
-0.07

###

Biological target: Inward rectifier potassium channel 2 (Mus musculus) (UniProt P35561)
Assay: blocks the mouse Kir2.1 inward-rectifier potassium channel (AID 1672);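 note: channel flux triggered by added potassium and thallium sulfate stimulus; B-score of peak minus minimum fluorescence over baseline after thallium stimulus; more negative B-score means stronger Kir2.1 block with less thallium influx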
Conditions: HEK293-Kir2.1, FluxOR thallium flux fluorescence; at 10 µM; hits give low values
About 2,600 (0.84%) of roughly 310,000 compounds were called active. This excerpt belongs to a sample that is enriched for actives.
Recorded B-score by entry

// worked examples, B-score included
Specify measured B-score for Brc1cnc2ccccc2c1N1CCCCC1 .
0.77 (inactive)

Read the entry CC(C)(C)C(=O)Cn1c(NCCO)nc2ccccc21 and write its reported B-score.
-0.4 (inactive)

Return B-score (reported value) for this molecule: O=C(Cc1c[nH]c2ccccc12)OCCOC(=O)Cc1c[nH]c2ccccc12
-7.97 (active)

Read off the recorded B-score for O=C(O)[C@@H]1CCCN1c1ncnc2sc3c(c12)CCC3
0.12 (inactive)

Using the record for CCn1c2ccccc2c2cc(NC(=O)C/C(C)=N/NC(=O)c3ccccc3N)ccc21 , state its measured B-score.
1.9 (inactive)

Give the reported B-score for this molecule. CCN(CC)c1ccc(S(=O)(=O)N2CCCCC2)cc1NC(=O)C1=COCCO1
1.68 (inactive)

Provide one value: measured B-score of O=C(NC1C2CC3CC(C2)CC1C3)c1ccc(N2CCNCC2)c([N+](=O)[O-])c1 (centres undefined)
0.7 (inactive)

Find the measured B-score of N=c1n(CCc2ccccc2)c2ccccc2n1Cc1ccccc1F and report it.
-8.75 (active)

Next:
Give a short answer stating reported B-score for CC(NC(=O)c1ccc(N2CCNCC2)c([N+](=O)[O-])c1)C12CC3CC(CC(C3)C1)C2 (centres undefined) .
-8.06 (active)

Respond only with B-score recorded for COc1ccc(C(C#N)(CC(=O)O)c2cnccn2)cc1OC (centres undefined)
-2.49 (inactive)

Tell me its B-score given CCN(CC)C(=O)CC(c1ccc2c(c1)OCO2)c1c(OC)cc(OC)c2c(-c3ccccc3)cc(=O)oc12 (centres undefined) as the entry.
1.58 (inactive)

Give B-score for the following molecule: COc1cc(OC)c2ccc(=O)oc2c1C(CCN1CCN(c2ccccc2)CC1)c1ccc2c(c1)OCO2 (centres undefined)
-0.17 (inactive)

Assign B-score to the following record: COc1ccc(F)c(-c2nc(CN3CCC(c4ccccc4)CC3)c(C)o2)c1
-6.63 (active)

For the molecule C=CCSc1nnc2c(n1)-c1cccc3cccc-2c13 , give its measured B-score value.
1.16 (inactive)
